- System: BXPC-3
- protocol: Antiproliferative activity against human BxPC-3 cells harboring ZFP91siRNA assessed as reduction in cell viability incubated for 48 hrs by MTT assay
- Format: functional, cell-based
- test_parameters: BXPC-3, 48 h
pIC50: −log10 of the molar value.
result_type: pIC50

>>> quantitative_readout("O=C1CCC(N2C(=O)c3cccc(NCCCCCC4CCN(CCNC(=O)c5cc6c(o5)C(=O)c5ccccc5C6=O)CC4)c3C2=O)C(=O)N1 (configuration not stated)")
5.92
>>> quantitative_readout("CC(=O)c1cc2c(o1)C(=O)c1ccccc1C2=O [NAPABUCASIN]")
5.89

###

- System: MIA PaCa-2
- protocol: Antiproliferative activity against human MIA PaCa-2 cells assessed as reduction in cell viability incubated for 3 days by MTT assay
- Assay type: functional, cell-based
- test_parameters: MIA PaCa-2, 72 h
result_type: IC50 (µM)

>>> quantitative_readout("O=C1CCC(N2C(=O)c3cccc(OCCOCCOCCNC(=O)c4cc5c(o4)C(=O)c4ccccc4C5=O)c3C2=O)C(=O)N1 (stereo not drawn)")
3.8
>>> quantitative_readout("O=C1CCC(N2C(=O)c3cccc(NCCOCCOCCOCCOCCNC(=O)c4cc5c(o4)C(=O)c4ccccc4C5=O)c3C2=O)C(=O)N1 (stereo not drawn)")
4.4
>>> quantitative_readout("O=C1CCC(N2Cc3c(CCCCCNC(=O)c4cc5c(o4)C(=O)c4ccccc4C5=O)cccc3C2=O)C(=O)N1 (stereo not drawn)")
6.4
>>> quantitative_readout("O=C1CCC(N2C(=O)c3cccc(NCCOCCOCCOCCOCCOCCOCCNC(=O)c4cc5c(o4)C(=O)c4ccccc4C5=O)c3C2=O)C(=O)N1 (stereo not drawn)")
5
>>> quantitative_readout("O=C1CCC(N2C(=O)c3cccc(NCCNC(=O)c4cc5c(o4)C(=O)c4ccccc4C5=O)c3C2=O)C(=O)N1 (stereo not drawn)")
4
>>> quantitative_readout("O=C1CCC(N2C(=O)c3cccc(NCCOCCNC(=O)c4cc5c(o4)C(=O)c4ccccc4C5=O)c3C2=O)C(=O)N1 (stereo not drawn)")
2.6
>>> quantitative_readout("CC(=O)c1cc2c(o1)C(=O)c1ccccc1C2=O")
1.2
>>> quantitative_readout("O=C1CCC(N2C(=O)c3cccc(NCCCCCNC(=O)c4cc5c(o4)C(=O)c4ccccc4C5=O)c3C2=O)C(=O)N1 (stereo not drawn)")
1.8

###

- System: MIA PaCa-2
- protocol: Antiproliferative activity against human MIA PaCa-2 cells assessed as reduction in cell viability incubated for 3 days by MTT assay
- Assay type: functional, cell-based
- test_parameters: MIA PaCa-2, 72 h
result_type: IC50 (µM)

>>> quantitative_readout("Cc1ncsc1-c1ccc(CNC(=O)[C@@H]2C[C@@H](O)CN2C(=O)[C@@H](NC(=O)COCCOCCNC(=O)c2cc3c(o2)C(=O)c2ccccc2C3=O)C(C)(C)C)cc1")
14.5
>>> quantitative_readout("CN1C(=O)CCC(N2C(=O)c3cccc(NCCCCCC4CCN(CCNC(=O)c5cc6c(o5)C(=O)c5ccccc5C6=O)CC4)c3C2=O)C1=O (stereo not drawn)")
2.7
>>> quantitative_readout("O=C1CCC(N2C(=O)c3cccc(NCCCCCC4CCN(CCNC(=O)c5cc6c(o5)C(=O)c5ccccc5C6=O)CC4)c3C2=O)C(=O)N1 (stereo not drawn)")
1
>>> quantitative_readout("O=C(COc1cccc2c1C(=O)N(C1CCC(=O)NC1=O)C2=O)NCCOCCOCCNC(=O)c1cc2c(o1)C(=O)c1ccccc1C2=O (stereo not drawn)")
16.7
>>> quantitative_readout("O=C1CCC(N2C(=O)c3cccc(NCCCCCCNC(=O)c4cc5c(o4)C(=O)c4ccccc4C5=O)c3C2=O)C(=O)N1 (stereo not drawn)")
3
>>> quantitative_readout("O=C(COc1cccc2c1C(=O)N(C1CCC(=O)NC1=O)C2=O)NCCCCNC(=O)c1cc2c(o1)C(=O)c1ccccc1C2=O (stereo not drawn)")
10.5
>>> quantitative_readout("O=C1CCC(N2Cc3c(NCCOCCOCCNC(=O)c4cc5c(o4)C(=O)c4ccccc4C5=O)cccc3C2=O)C(=O)N1 (stereo not drawn)")
13.7
>>> quantitative_readout("O=C1CCC(N2C(=O)c3cccc(NCCN4CCN(CCNC(=O)c5cc6c(o5)C(=O)c5ccccc5C6=O)CC4)c3C2=O)C(=O)N1 (stereo not drawn)")
18.1
>>> quantitative_readout("O=C(COc1cccc2c1C(=O)N(C1CCC(=O)NC1=O)C2=O)NCCOCCOCCOCCNC(=O)c1cc2c(o1)C(=O)c1ccccc1C2=O (stereo not drawn)")
3.7
>>> quantitative_readout("O=C1CCC(N2C(=O)c3cccc(C#CCCCNC(=O)c4cc5c(o4)C(=O)c4ccccc4C5=O)c3C2=O)C(=O)N1 (stereo not drawn)")
2.1
>>> quantitative_readout("Cc1ncsc1-c1ccc(CNC(=O)[C@@H]2C[C@@H](O)CN2C(=O)[C@@H](NC(=O)COCCNC(=O)c2cc3c(o2)C(=O)c2ccccc2C3=O)C(C)(C)C)cc1")
15.8
>>> quantitative_readout("O=C1CCC(N2C(=O)c3cccc(NCCCNC(=O)c4cc5c(o4)C(=O)c4ccccc4C5=O)c3C2=O)C(=O)N1 (stereo not drawn)")
2.7
>>> quantitative_readout("O=C1CCC(N2C(=O)c3cccc(NCCC4CCN(CCNC(=O)c5cc6c(o5)C(=O)c5ccccc5C6=O)CC4)c3C2=O)C(=O)N1 (stereo not drawn)")
1.1
>>> quantitative_readout("O=C1CCC(N2C(=O)c3cccc(OCCCCNC(=O)c4cc5c(o4)C(=O)c4ccccc4C5=O)c3C2=O)C(=O)N1 (stereo not drawn)")
2
>>> quantitative_readout("O=C1CCC(N2C(=O)c3cccc(NCCOCCOCCOCCNC(=O)c4cc5c(o4)C(=O)c4ccccc4C5=O)c3C2=O)C(=O)N1 (stereo not drawn)")
2.1
>>> quantitative_readout("O=C1CCC(N2C(=O)c3cccc(NCCOCCOCCNC(=O)c4cc5c(o4)C(=O)c4ccccc4C5=O)c3C2=O)C(=O)N1 (stereo not drawn)")
1.3
>>> quantitative_readout("O=C1CCC(N2C(=O)c3cccc(NCCCCNC(=O)c4cc5c(o4)C(=O)c4ccccc4C5=O)c3C2=O)C(=O)N1 (stereo not drawn)")
1.6

Origin of measurements: ChEMBL document CHEMBL4706672
